B1: OR4K15 (parent)
chain: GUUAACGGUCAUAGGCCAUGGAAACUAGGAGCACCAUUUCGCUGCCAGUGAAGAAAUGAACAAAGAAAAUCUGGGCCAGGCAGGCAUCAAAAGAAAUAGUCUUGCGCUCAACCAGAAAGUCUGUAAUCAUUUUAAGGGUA

variants of: B1; test: self-cleavage, relative activity (ratio to wild type); higher = more cleavage; in vitro, sequencing; the parent is a self-cleaving ribozyme
Kindly state self-cleavage for each of the entries shown.
Give bare numbers.

**Q:** Retrieve self-cleavage measured for GUUAACGGUCAUAGGCCAUGGAAACUAGGAGCACCAUUCCGCUGCCAGUGAAGAAAUGAACAAAGAAAAUCUGGGCUAGGCAGGCAUCAAAAGAAAUAGUCUUGCGCUCAACCAGAAAGUCUGUAAUCAUUUUAAGGGUA [U39C C77U] and print it.
**A:** 1.75

**Q:** Retrieve self-cleavage measured for GUUAGCGGUCAUAGGCCAUGGAAACUAGGAGCACCAUUUCGCUGCCAGUGAAGAAACGAACAAAGAAAAUCUGGGCCAGGCAGGCAUCAAAAGAAAUAGUCUUGCGCUCAACCAGAAAGUCUGUAAUCAUUUUAAGGGUA [A5G U57C] and print it.
**A:** 0.68

**Q:** Retrieve self-cleavage measured for GUUAACGGUCAUAGGCCAUGGAAACUAGGAGCACCAUUUCGCCGCCAGUGAAGAAAUGAACAAAGAAAAUCUGGGCCAGGCAGGCAUCAAAAGAAAUAGUCUGGCGCUCAACCAGAAAGUCUGUAAUCAUUUUAAGGGUA [U43C U103G] and print it.
**A:** 0.01

**Q:** Retrieve self-cleavage measured for GUUAACGGUCAUAGGCCAUGGAAACUAGGGGCACCAUUUCGCUGCCAGUGAAGAAACGAACAAAGAAAAUCUGGGCCAGGCAGGCAUCAAAAGAAAUAGUCUUGCGCUCAACCAGAAAGUCUGUAAUCAUUUUAAGGGUA [A30G U57C] and print it.
**A:** 1.29

**Q:** Retrieve self-cleavage measured for GUUAACGGUCAUAGGCCAUGGAAACUAGGAGCACCAUCUCGCUGCCAGUGAAGAAAUGAACAAAGAAAAUCUGGGCCAGGCAGGCAACAAAAGAAAUAGUCUUGCGCUCAACCAGAAAGUCUGUAAUCAUUUUAAGGGUA [U38C U87A] and print it.
**A:** 1.6

Batch request: self-cleavage for each of the following variants.
1. GUUAACGGUCAUAGGCCAUGGAAACUAGGAGCACCAUUUCGCUGCCAGUGAAGAAAUGAACAAAGAAAAUCUGGGCCUGGCAGGCAUCAAAAGAAAUAGUCUUGCGCUCAACCAGAAAGUCUGUAAUCAUUUAAAGGGUA [A78U U133A]
2. GUUAACGGUCAUAGGCCAUGGAAACUAGGAGCACCAUUUCGCUGCCAGUGAAGAAAUGAACAAAGAAAAUCUGGGCCAGGCAGGCAUCAAAAGAAAUAGUCUUGCGCACAACCUGAAAGUCUGUAAUCAUUUUAAGGGUA [U108A A114U]
3. GUUAACGGUCAUAGGCCAUGGAAACUAGGAGCACCAUUUCGCUGCCAGUGAAGAAAUGAGCAAAGAAAAUCUGGGCCAGGCAGGCAUCAAAAGAAAUAGUCUUGCGCUCAACCAGAAAGUCUGUAAUCAUUCUAAGGGUA [A60G U132C]
4. GUUAACGGUCAUAGGCCAUGGAAACUAGGAGCACCAUUUCGCUGCCAGUGAAGAAAUGAACAAAGAAAAUCUGGGCCAGGCAGUCAUCAAAAGAAAUAGUCUUGCGCUCUACCAGAAAGUCUGUAAUCAUUUUAAGGGUA [G84U A110U]

**A:**
[0.72, 0, 1.07, 0.44]

Data origin, for the record: the RNAGym collection of RNA variant scans (doi:10.7554/elife.90254)
